test: Waters ACQUITY UPLC BEH C18, 100 × 2.1 mm, 1.7 µm, 40 °C, 0.28 mL/min, estimated dead time 0.63 min; A: water + 6.5 mM ammonium hydroxide; B: methanol + 6.5 mM ammonium hydroxide; gradient (min/%B) 0/0.5 4/70 4.5/98 5.4/98; conditions: stereoisomer not certain
outcome.measure: LC retention time (min)

Below: 3 compounds and their reported LC retention time.
QUERY: Let me know recorded LC retention time for CCC(CO)C(=O)O (stereo unspecified) , thanks.
RESULT: 0.857

QUERY: Let me know recorded LC retention time for O=C(O)Cc1cc(O)ccc1O , thanks.
RESULT: 1.49

QUERY: Let me know recorded LC retention time for NC1C(O)OC(CO)C(O)C1O (stereo unspecified) , thanks.
RESULT: 0.802

a: Oc1cccc(O)c1O
b: COc1ccc(O)c(C(=O)O)c1
QUERY: Endpoint returns whichever of a and b has the numerically higher LC retention time. State your choice using its label.
RESULT: b
(b: 2.84 min, a: 1.93 min)

a: Cn1cnc2c(ncn2C2OC(CO)C(O)C2O)c1=N (stereo unspecified)
b: NCC(O)CCC(N)C(=O)O (stereo unspecified)
c: Nc1nc2c(ncn2C2OC(CO)C(O)C2O)c(=O)[nH]1 (stereo unspecified)
d: CC(=O)NC(CS)C(=O)O (stereo unspecified)
QUERY: Hello, I need these entries ordered by LC retention time, highest reading first. Thanks! Reply: labels, ordered per the request.
RESULT: a, c, d, b
(a: 3.02 min, c: 1.98 min, d: 1.15 min, b: 0.78 min)
